Target: T1, huNav1.7α + β1 (human Nav1.7α co-expressed with Navβ1) (human, UniProt Q15858 1-1988; Q07699 19-218)
T1 construct: also called HEK293 human Nav1.7α + β1; HEKa/β1 Nav1.7α
Assay: binding FACS, HEKa/β1 cells
ENDPOINT_NAME: pEC50
// pEC50: -log10(molar conc.)

Worked set:
F010301643 (VHH, also called F0103387G05(L11V, A14P, D23A, N82bS, N83R, V89L, R105Q)) VHH: EVQLVESGGGVVQPGGSLRLSCAASGRILRIGYMRWHRQGAGKQREFVARITDDSATDYADSVKGRFTISRDNAKNTVYLQMNSLRPEDTALYYCEALVTASVRGGSIHSGTYWGQGTLVTVSS    8.47
F010301644 (VHH, also called F0103387G05(L11V, A14P, H37Y, N82bS, N83R, V89L, R105Q)) VHH: EVQLVESGGGVVQPGGSLRLSCDASGRILRIGYMRWYRQGAGKQREFVARITDDSATDYADSVKGRFTISRDNAKNTVYLQMNSLRPEDTALYYCEALVTASVRGGSIHSGTYWGQGTLVTVSS    8.30
F010301645 (VHH, also called F0103387G05(L11V, A14P, G40A, N82bS, N83R, V89L, R105Q)) VHH: EVQLVESGGGVVQPGGSLRLSCDASGRILRIGYMRWHRQAAGKQREFVARITDDSATDYADSVKGRFTISRDNAKNTVYLQMNSLRPEDTALYYCEALVTASVRGGSIHSGTYWGQGTLVTVSS    8.38
F010301850 (VHH, also called F0103387G05(L11V, A14P, D23A, H37Y, G40A, A41P, D58G, N82bS, N83R, V89L, R105Q)) VHH: EVQLVESGGGVVQPGGSLRLSCAASGRILRIGYMRWYRQAPGKQREFVARITDDSATGYADSVKGRFTISRDNAKNTVYLQMNSLRPEDTALYYCEALVTASVRGGSIHSGTYWGQGTLVTVSS    8.74
F010301563 (VHH, also called F0103387G05(D23A, D58G)) VHH: EVQLVESGGGLVQAGGSLRLSCAASGRILRIGYMRWHRQGAGKQREFVARITDDSATGYADSVKGRFTISRDNAKNTVYLQMNNLNPEDTAVYYCEALVTASVRGGSIHSGTYWGRGTLVTVSS    9.00
F010301646 (VHH, also called F0103387G05(L11V, A14P, A41P, N82bS, N83R, V89L, R105Q)) VHH: EVQLVESGGGVVQPGGSLRLSCDASGRILRIGYMRWHRQGPGKQREFVARITDDSATDYADSVKGRFTISRDNAKNTVYLQMNSLRPEDTALYYCEALVTASVRGGSIHSGTYWGQGTLVTVSS    8.39

Looking up F0103387G05 (parental)-FLAG-HIS6 (VHH) VHH: EVQLVESGGGLVQAGGSLRLSCDASGRILRIGYMRWHRQGAGKQREFVARITDDSATDYADSVKGRFTISRDNAKNTVYLQMNNLNPEDTAVYYCEALVTASVRGGSIHSGTYWGRGTLVTVSS , I see its pEC50 listed as 8.72

Looking up F010301556 (VHH, also called F0103387G05(D23A, D53G, D54G, D58G)) VHH: EVQLVESGGGLVQAGGSLRLSCAASGRILRIGYMRWHRQGAGKQREFVARITGGSATGYADSVKGRFTISRDNAKNTVYLQMNNLNPEDTAVYYCEALVTASVRGGSIHSGTYWGRGTLVTVSS , I see its pEC50 listed as 8.85

Looking up F010302309 (VHH, also called F0103387G05(L11V, A14P, D23A, H37Y, G40A, A41P, D58G, N73Q, N82bS, N83R, V89L, R105Q)) VHH: EVQLVESGGGVVQPGGSLRLSCAASGRILRIGYMRWYRQAPGKQREFVARITDDSATGYADSVKGRFTISRDQAKNTVYLQMNSLRPEDTALYYCEALVTASVRGGSIHSGTYWGQGTLVTVSS , I see its pEC50 listed as 8.82

Looking up F010302308 (VHH, also called F0103387G05(L11V, A14P, D23A, H37Y, G40A, A41P, D58G, N73Y, N82bS, N83R, V89L, R105Q)) VHH: EVQLVESGGGVVQPGGSLRLSCAASGRILRIGYMRWYRQAPGKQREFVARITDDSATGYADSVKGRFTISRDYAKNTVYLQMNSLRPEDTALYYCEALVTASVRGGSIHSGTYWGQGTLVTVSS , I see its pEC50 listed as 8.89

Looking up F010301648 (VHH, also called F0103387G05(L11V, A14P, N82bS, N83R, V89L, E93N, R105Q); E93N) VHH: EVQLVESGGGVVQPGGSLRLSCDASGRILRIGYMRWHRQGAGKQREFVARITDDSATDYADSVKGRFTISRDNAKNTVYLQMNSLRPEDTALYYCNALVTASVRGGSIHSGTYWGQGTLVTVSS , I see its pEC50 listed as 8.49

Looking up F010301647 (VHH, also called F0103387G05(L11V, A14P, F47L, N82bS, N83R, V89L, R105Q); F47L) VHH: EVQLVESGGGVVQPGGSLRLSCDASGRILRIGYMRWHRQGAGKQRELVARITDDSATDYADSVKGRFTISRDNAKNTVYLQMNSLRPEDTALYYCEALVTASVRGGSIHSGTYWGQGTLVTVSS , I see its pEC50 listed as 8.40

Looking up F010301849 (VHH, also called F0103387G05(L11V, A14P, D23A, G40A, A41P, D58G, N82bS, N83R, V89L, R105Q)) VHH: EVQLVESGGGVVQPGGSLRLSCAASGRILRIGYMRWHRQAPGKQREFVARITDDSATGYADSVKGRFTISRDNAKNTVYLQMNSLRPEDTALYYCEALVTASVRGGSIHSGTYWGQGTLVTVSS , I see its pEC50 listed as 8.74

Looking up F010302307 (VHH, also called F0103387G05(L11V, A14P, D23A, H37Y, G40A, A41P, D58G, N73A, N82bS, N83R, V89L, R105Q)) VHH: EVQLVESGGGVVQPGGSLRLSCAASGRILRIGYMRWYRQAPGKQREFVARITDDSATGYADSVKGRFTISRDAAKNTVYLQMNSLRPEDTALYYCEALVTASVRGGSIHSGTYWGQGTLVTVSS , I see its pEC50 listed as 8.72

Looking up F010302391 (VHH, also called F0103387G05(L11V, A14P, D23A, H37Y, G40A, A41P, D53G, D54G, D58G, N82bS, N83R, V89L, R105Q)-FLAG3-HIS6) VHH: EVQLVESGGGVVQPGGSLRLSCAASGRILRIGYMRWYRQAPGKQREFVARITGGSATGYADSVKGRFTISRDNAKNTVYLQMNSLRPEDTALYYCEALVTASVRGGSIHSGTYWGQGTLVTVSS , I see its pEC50 listed as 8.70

Looking up F010301649 (VHH, also called F0103387G05(L11V, A14P, N82bS, N83R, V89L, R105Q)) VHH: EVQLVESGGGVVQPGGSLRLSCDASGRILRIGYMRWHRQGAGKQREFVARITDDSATDYADSVKGRFTISRDNAKNTVYLQMNSLRPEDTALYYCEALVTASVRGGSIHSGTYWGQGTLVTVSS , I see its pEC50 listed as 8.39
